Data provenance is paper PMC10786891.

Target: T1, EsCas13d, nuclease-dead (Eubacterium siraeum, UniProt B0MS50, R295A;H300A;R849A;H854A)
T1 sequence: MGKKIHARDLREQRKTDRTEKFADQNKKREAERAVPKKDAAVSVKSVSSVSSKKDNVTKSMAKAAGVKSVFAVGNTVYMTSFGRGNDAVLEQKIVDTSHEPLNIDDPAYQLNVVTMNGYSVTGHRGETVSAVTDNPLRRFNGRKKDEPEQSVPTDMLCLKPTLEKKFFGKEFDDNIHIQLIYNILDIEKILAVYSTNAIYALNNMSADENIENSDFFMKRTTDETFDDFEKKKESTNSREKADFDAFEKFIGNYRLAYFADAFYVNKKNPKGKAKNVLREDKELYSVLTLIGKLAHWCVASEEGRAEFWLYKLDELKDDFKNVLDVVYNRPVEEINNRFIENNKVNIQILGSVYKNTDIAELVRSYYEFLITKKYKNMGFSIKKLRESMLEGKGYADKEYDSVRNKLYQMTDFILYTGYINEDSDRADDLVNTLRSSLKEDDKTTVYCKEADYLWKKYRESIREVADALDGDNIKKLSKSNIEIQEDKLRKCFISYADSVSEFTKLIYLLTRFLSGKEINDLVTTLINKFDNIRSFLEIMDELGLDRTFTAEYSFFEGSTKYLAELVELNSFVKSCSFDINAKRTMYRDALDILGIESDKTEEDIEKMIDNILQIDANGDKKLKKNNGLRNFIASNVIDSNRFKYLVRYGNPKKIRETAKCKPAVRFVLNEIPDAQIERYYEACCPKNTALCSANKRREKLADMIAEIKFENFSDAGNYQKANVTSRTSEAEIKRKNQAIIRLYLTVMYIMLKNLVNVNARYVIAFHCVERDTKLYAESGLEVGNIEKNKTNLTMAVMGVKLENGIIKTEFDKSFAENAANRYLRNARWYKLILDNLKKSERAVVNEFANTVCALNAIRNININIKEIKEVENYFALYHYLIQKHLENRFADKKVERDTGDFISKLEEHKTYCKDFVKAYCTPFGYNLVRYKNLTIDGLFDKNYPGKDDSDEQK
Test: crRNA (strand 1, pre-loaded); Mg2+; 40 mM Tris-HCl pH 7.5, 150 mM NaCl, 6 mM MgCl2, 1 mM DTT, 0.1% Tween-20, 0.2 mg/ml BSA; 25 C; 10 min per concentration, then washed
Settings: tags: His6-TwinStrep-SUMO cleaved; N-terminal SNAP kept (SNAP-Surface 488); label: 3' end held by stalled T7 RNA polymerase
MEASUREMENT_TYPE: pKd
Give bare numbers, as −log10 of the molar value.

For every record below, what is its pKd?
1. target 1 C7U,A18U (mixed) RNA 1: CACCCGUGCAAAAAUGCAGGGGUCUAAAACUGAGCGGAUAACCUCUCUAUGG RNA 2: GGGAAUGGAUCCACAUCUACGAAUUCGUACCAUUGAGAGGUUAUUCGCUCACCGAGAUCGGAAGAGCACACGU
2. target 2 MT 5'PFS UCG 3'PFS ACU (mixed) RNA 1: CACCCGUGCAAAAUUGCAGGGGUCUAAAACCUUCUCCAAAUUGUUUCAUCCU RNA 2: GGGAAUGGAUCCACAUCUACGAAUUCUCGAGGAUGAAACAAUUUGGAGAAGACUAGAUCGGAAGAGCACACGU

[7.57, 7.70]
